Tested on: A431
test.details: LBPA endosome anti-LBPA integrated intensity (sum per cell), Z-score; higher = more LBPA staining
settings: compound concentration in added solution (µM; 5 µl added to 20 µl cells): 10; 18 h
Where a name gives a salt, the structure may show the parent alone.
Task for the reader: assign each of the following compounds its reported LBPA endosome anti-LBPA integrated intensity (z-score).
Write the number on its own, no unit after it.

Please look up its LBPA endosome anti-LBPA integrated intensity (z-score): CCCCOc1cc(C(=O)OCCN(CC)CC)ccc1N [Benoxinate hydrochloride]
1.79

Check C[C@]12CC[C@@H]3c4ccc(O)cc4C[C@@H](CCCCCCCCC[S+]([O-])CCCC(F)(F)C(F)(F)F)[C@H]3[C@@H]1CC[C@@H]2O (stereo partly drawn) too.
1.44

Same lookup for `COc1ccccc1O` , please.
-0.278

And CC(C)(C)NC[C@H](O)COc1ccccc1C1CCCC1 [Penbutolol sulfate] ?
1.31

Same question, `CN1CCN(c2c(F)cc3c(=O)c(C(=O)O)cn4c3c2SCC4)CC1` this time
-0.614

Ok, now NC(=O)c1ccc[n+]([C@@H]2O[C@H](COP(=O)([O-])OP(=O)(O)OC[C@H]3O[C@@H](n4cnc5c(N)ncnc54)[C@H](O)[C@@H]3O)[C@@H](O)[C@H]2O)c1 [Nadide]
-0.373

Then this compound: `O=C(CCCN1CCC(O)(c2ccc(Cl)cc2)CC1)c1ccc(F)cc1`
2.66

What do you get for CN1CCC(=C2c3ccccc3C=Cc3ccccc32)CC1 [Cyproheptadine hydrochloride] ?
2.41
